Values compiled from PubChem BioAssay AID1511.

- target-or-test-system: Voltage-gated inwardly rectifying potassium channel KCNH2 (Homo sapiens) (UniProt Q12809)
- Sequence (Q12809 whole entry, looked up): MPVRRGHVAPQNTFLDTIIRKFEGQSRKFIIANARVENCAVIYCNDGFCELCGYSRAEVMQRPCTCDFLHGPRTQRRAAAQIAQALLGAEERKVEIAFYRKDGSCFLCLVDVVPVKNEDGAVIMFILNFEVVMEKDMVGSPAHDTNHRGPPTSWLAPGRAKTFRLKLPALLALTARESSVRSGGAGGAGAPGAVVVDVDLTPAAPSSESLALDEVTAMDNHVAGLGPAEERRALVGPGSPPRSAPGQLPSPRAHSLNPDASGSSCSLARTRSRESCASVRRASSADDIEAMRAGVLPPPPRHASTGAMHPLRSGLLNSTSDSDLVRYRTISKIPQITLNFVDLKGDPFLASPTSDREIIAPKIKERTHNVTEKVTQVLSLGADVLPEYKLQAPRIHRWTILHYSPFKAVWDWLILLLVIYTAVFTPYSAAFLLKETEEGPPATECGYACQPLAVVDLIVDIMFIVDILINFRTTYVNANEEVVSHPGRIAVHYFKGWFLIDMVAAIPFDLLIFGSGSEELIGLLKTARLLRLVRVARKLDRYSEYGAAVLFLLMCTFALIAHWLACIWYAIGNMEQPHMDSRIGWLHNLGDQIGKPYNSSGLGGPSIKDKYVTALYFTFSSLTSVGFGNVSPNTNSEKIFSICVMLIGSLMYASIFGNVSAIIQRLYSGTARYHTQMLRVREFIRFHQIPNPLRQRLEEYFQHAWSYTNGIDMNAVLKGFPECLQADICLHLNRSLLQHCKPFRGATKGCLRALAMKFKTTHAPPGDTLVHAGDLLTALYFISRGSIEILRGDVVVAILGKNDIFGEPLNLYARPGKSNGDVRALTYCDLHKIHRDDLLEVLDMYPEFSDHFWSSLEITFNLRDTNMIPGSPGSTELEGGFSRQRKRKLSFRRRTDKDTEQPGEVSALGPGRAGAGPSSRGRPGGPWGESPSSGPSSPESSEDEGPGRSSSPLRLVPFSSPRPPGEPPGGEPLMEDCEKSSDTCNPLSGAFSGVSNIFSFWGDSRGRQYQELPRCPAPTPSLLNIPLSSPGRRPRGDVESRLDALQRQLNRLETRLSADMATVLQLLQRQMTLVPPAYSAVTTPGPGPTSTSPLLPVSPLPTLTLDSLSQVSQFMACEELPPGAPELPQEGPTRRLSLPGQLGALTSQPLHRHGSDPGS
- method-notes: hERG rescue from dofetilide block, primary screen, cell-based, CHO-hERG, FluxOR thallium flux, dofetilide IC70 (AID 1511);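 note: thallium influx through hERG after potassium depolarization seen as dye fluorescence rise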
- condition-info: dofetilide IC70 present, at 10 µM, stronger effect = higher value
Screen size: about 310,000 compounds; about 1,600 (0.52%) were called active. This excerpt belongs to a sample that is enriched for actives.
property: activation (rescue from dofetilide block), less the hit threshold (%)

- CCc1ccc(C2N3CC4([N+](=O)[O-])CN2CC([N+](=O)[O-])(C3)C4(C)C)cc1 (centres undefined): -4.31
- COc1cc(OC)c(NC(=O)C2CCCN2C(=O)OCc2ccccc2)cc1Cl (centres undefined): -14.7
- CCOC(=O)Cc1cc(=O)[nH]c(=O)[nH]1: -4
- CCO[C@H]1OC(C(=O)O)=C[C@@H](C2CCCCC2)[C@@H]1CCCO: -4.25

====

- target-or-test-system: Voltage-gated inwardly rectifying potassium channel KCNH2 (Homo sapiens)
- method-notes: hERG rescue from dofetilide block, primary screen, cell-based, CHO-hERG, FluxOR thallium flux, dofetilide IC70 (AID 1511)
- condition-info: dofetilide IC70 present, at 10 µM, stronger effect = higher value
Among all 310,000 compounds or so, about 1,600 (0.52%) were called active. For the sample, actives were picked, then their nearest neighbours and some compounds at random.
property: activation (rescue from dofetilide block), less the hit threshold (%)

• COc1ccc(CNS(=O)(=O)c2cc(-c3cc(C)no3)ccc2C(C)C)cc1 = -6.05
• NS(=O)(=O)c1cccc(NC(=O)CC23CC4CC(CC(Br)(C4)C2)C3)c1 = -7.94
• COc1ccc(CN2CC[C@H]3C=CC[C@@H](C(=O)N4CCOCC4)[C@H]3C2=O)cc1OC = 5.8

====

Attribute: activation (rescue from dofetilide block), less the hit threshold
- target-or-test-system: Voltage-gated inwardly rectifying potassium channel KCNH2 (Homo sapiens) (UniProt Q12809)
- method-notes: hERG rescue from dofetilide block, primary screen, cell-based, CHO-hERG, FluxOR thallium flux, dofetilide IC70 (AID 1511);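 note: thallium influx through hERG after potassium depolarization seen as dye fluorescence rise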
- condition-info: dofetilide IC70 present, at 10 µM, stronger effect = higher value
The whole screen tested about 310,000 compounds, of which about 1,600 (0.52%) were called active. The sample as a whole holds a higher share of actives than the screen did.
property: activation (rescue from dofetilide block), less the hit threshold (%)

- Cc1c(C)c2c(OCC(=O)N[C@@H](C(=O)O)c3ccccc3)cc3c(c2oc1=O)CCC(C)(C)O3: -2.69
- Cc1ccc2c(c1)N(S(=O)(=O)c1cc(-c3cc(C)no3)ccc1C)CCO2: -7.78
- O=C1CC(c2cccc(F)c2)C2=C(CCCC2=O)N1 (stereo not drawn): -5.36
- COc1ccc(CCc2nnc(CCC(=O)NCc3cnn(-c4ccccc4C)c3)o2)cc1: -3.52
- COc1ccc(CC(=O)N2N=C(C)CC2(O)C(F)(F)F)cc1 (stereo not drawn): -4.8
- C=Cn1cc[n+](CC(=O)c2ccc(OC)c(OC)c2)c1: -13.3
- CCCCNC(=O)CCn1c(=S)[nH]c2cc3c(cc2c1=O)OCO3: -6.01
- COc1cc(-c2noc(C3CCCN(S(=O)(=O)c4cccc(Cl)c4)C3)n2)cc(OC)c1OC (stereo not drawn): -11.3
- O=C1CCCC2=C1C(c1ccccc1)n1c(s/c(=C/c3cccc(F)c3)c1=O)=N2 (stereo not drawn): 5.71
- CCCCCC1CCC(c2nnc(SCC(C)=O)o2)CC1 (stereo not drawn): 5.95
- CCOC(=O)N1CCC(NC(=O)c2ccc3nc(N4CCOCC4)sc3c2)CC1: -5.7
- Cc1nc(-c2ccc(Cl)cc2)sc1C(=O)NN: -10.7
- CCCCn1c(N)c(N(CCOC)C(=O)c2sc3ccccc3c2Cl)c(=O)[nH]c1=O: -2.36
- Cc1ccc(S(=O)(=O)N(C)CC(=O)OCC(=O)N2CC(=O)Nc3ccccc32)cc1: -8.2
- CCN(CC)C(=O)CSc1nnc(C2CCCCC2)o1: -6.69
- CC(C)NC(=O)CCCn1c(=S)[nH]c2cc3c(cc2c1=O)OCO3: -9.07
- CC1CC(C)CN(C(=O)CSc2ccsc2[N+](=O)[O-])C1 (stereo not drawn): -2.19
- COc1ccc(OC)c(C2C3=C(N=c4s/c(=C\c5cccc(O)c5)c(=O)n42)c2ccccc2CC3)c1 (stereo not drawn): -0.7

====

- target-or-test-system: Voltage-gated inwardly rectifying potassium channel KCNH2 (Homo sapiens) (UniProt Q12809)
- method-notes: hERG rescue from dofetilide block, primary screen, cell-based, CHO-hERG, FluxOR thallium flux, dofetilide IC70 (AID 1511);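 note: thallium influx through hERG after potassium depolarization seen as dye fluorescence rise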
- condition-info: dofetilide IC70 present, at 10 µM, stronger effect = higher value
In all, about 310,000 compounds went through this assay and about 1,600 (0.52%) were called active. Only a selection was taken, and actives are over-represented in it overall.
Listed next: entries and their corresponding activation (rescue from dofetilide block), less the hit threshold.
property: activation (rescue from dofetilide block), less the hit threshold (%)

• CC12c3ccccc3C(c3ccccc31)C1C(=O)N(Cc3cccnc3)C(=O)C12 (stereo not drawn) = -9.37
• Cc1ccc(CNC(=O)CCNS(=O)(=O)c2cccc3nonc23)cc1 = -9.61
• CCOC(=O)CC(=O)CSc1nc(-c2ccccc2)cc(-c2ccc(Cl)cc2)c1C#N = -4.82
• N#Cc1c(-c2ccccc2)cc(-c2ccccc2)nc1SCC(=O)O = -12.9
• COc1ccc(C23NCCN2C(=O)c2ccccc23)cc1 (stereo not drawn) = -7.58
• Cc1cc([N+](=O)[O-])ccc1NC(=O)C1CCCO1 (stereo not drawn) = -1.96
• NC(=O)Cc1ccc2c(c1)[nH]c1ccccc12 = -8.6
• CC(C)C(=O)Nc1nnc(Sc2ccc(N(C)C)cc2)s1 = -6.31
• Cc1ccc2c(c1)nnc1nnc(SCC(=O)O)n12 = 1.69
• S=c1[nH]c2ccccc2c2ccccc12 = 6.26
• CN(C)c1nc(=Nc2cccc(Cl)c2)ss1 = 40.5
• Cc1ccc(C)c(C(C)NC(=O)C2CCCO2)c1 (stereo not drawn) = -6.97
• COc1cc(NS(=O)(=O)c2ccc3ccccc3c2)c2ncccc2c1 = 5.48

====

- target-or-test-system: Voltage-gated inwardly rectifying potassium channel KCNH2 (Homo sapiens)
- method-notes: hERG rescue from dofetilide block, primary screen, cell-based, CHO-hERG, FluxOR thallium flux, dofetilide IC70 (AID 1511);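 note: thallium influx through hERG after potassium depolarization seen as dye fluorescence rise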
- condition-info: dofetilide IC70 present, at 10 µM
In all, about 310,000 compounds went through this assay and about 1,600 (0.52%) were called active.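 The calls were made as follows: active = activation above the mean of controls blocked by dofetilide plus 5 SD; inactive = the rest.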 The sample as a whole holds a higher share of actives than the screen did.
Outcome codes: 1 for active, -1 for inactive

* CC(C)CCNC(=O)C1CCC(CNc2c(N3CCC(C)CC3)c(=O)c2=O)CC1 (stereo not given) | -1
* CCN1CCN(C(=O)c2ccc(CN(c3ccc(C)c(C)c3)S(C)(=O)=O)cc2)CC1 | -1
* c1ccc(NCc2cccc3ccccc23)nc1 | -1
* COc1ccc(/C=C2/S/C(=N/N=C3\CC4CCC3(C)C4(C)C)NC2=O)cc1 (stereo not given) | 1
* Cc1cc(OC(=O)c2c(Cl)cccc2Cl)nc(C)n1 | -1
* Oc1ccc(N=Nc2nccs2)c(O)c1 | -1
* Cc1ccc2nc(-c3ccncc3)cc(C(=O)Nc3ccncc3)c2c1 | -1
* Cc1cc(C)c2c(n1)sc1c(=O)n(-c3ccccc3)c(=O)[nH]c12 | -1
* CCOc1ccc2nc(/N=C/c3nc(-c4ccccc4)oc3O)sc2c1 | 1
* O=C(NC1CCCC1)C(c1c(F)cccc1Cl)N(C(=O)c1csnn1)C1CC1 (stereo not given) | -1
* CCOC(=O)N1CCN(C(=O)c2ccc(CN(c3ccc(C)c(C)c3)S(C)(=O)=O)cc2)CC1 | 1
* CCOC(=O)C1CCN(c2c(Nc3cc(C)cc(C)c3)c(=O)c2=O)CC1 | -1
* Cc1cccc(S(=O)(=O)N2CN(CC3CCCO3)c3nc4ccccc4nc32)c1 (stereo not given) | -1
* O=C(CSc1nnnn1C1CCCC1)Nc1ccc2c(c1)OCCO2 | 1
* Cc1cccc(C)c1NC(=O)CS(=O)CC(=O)N1CCN(c2ccccc2)CC1 (stereo not given) | -1
